test system: control Gram-negative E. coli 25922 strain; test: Antibacterial activity, microbroth dilution MIC, E. coli 25922; assay type: cell-based, Escherichia coli; conditions: Escherichia coli; E. coli 25922, microbroth dilution; read-out: MIC, 25922
readout-label: MIC

Below, each entry is followed by its recorded MIC result.
molecule	readout-label	reported-value
CCc1cc(C(=O)O)c(=O)[nH]c1-c1ccccc1N(C)C [Cpd 54]	MIC	12.5 to 150 µg/mL
CCc1c(-c2ccc(N3CCC(N(C)C)C3)cc2)[nH]c(=O)c(C(=O)O)c1O.Cl (centres unmarked) [Cpd 275]	MIC	< 1 µg/mL
CCc1c(-c2ccc(N3CC4(CCCN4)C3)cc2)[nH]c(=O)c(C(=O)O)c1O [Cpd 323]	MIC	3.5 to 12.5 µg/mL
CCc1cc(C(=O)O)c(=O)[nH]c1-c1ccc(N2CCOCC2)cc1 [Cpd 110]	MIC	3.5 to 12.5 µg/mL

Give the reported MIC for this molecule. CCc1c(-c2ccccc2N(C)C)[nH]c(=O)c(C(=O)O)c1O [Cpd 58]
12.5 to 150 µg/mL
